tested on: CCRF-CEM; assay: The concentration required to reduce 50% cell viability on CEM cells of Human T-lymphocyte; format: functional
experimentalReadout: CC50 (µg/mL)
# value in µg/mL; strip the unit string

[
  {
    "compound": "O=C1NS(=O)(=O)N(COCCO)c2ccccc21",
    "assayTarget": "CCRF-CEM",
    "measureUnit": "µg/mL",
    "CC50": 15
  },
  {
    "compound": "O=C(OCCOCN1c2ccccc2C(=O)N(Cc2ccccc2)S1(=O)=O)c1ccccc1",
    "assayTarget": "CCRF-CEM",
    "measureUnit": "µg/mL",
    "CC50": 100
  },
  {
    "compound": "C#CCOCN1c2ccccc2C(=O)N(Cc2ccccc2)S1(=O)=O",
    "assayTarget": "CCRF-CEM",
    "measureUnit": "µg/mL",
    "CC50": 23
  },
  {
    "compound": "O=C1c2ccccc2N(COCCO)S(=O)(=O)N1Cc1ccccc1",
    "assayTarget": "CCRF-CEM",
    "measureUnit": "µg/mL",
    "CC50": 89
  }
]

input: Recall the recorded CC50 for O=C1c2ccccc2N(Cc2ccccc2)S(=O)(=O)N1COCc1ccccc1 with CCRF-CEM and state it.
output: 100

input: Which measured CC50 belongs to CC(=O)OCCOCN1c2ccccc2C(=O)N(Cc2ccccc2)S1(=O)=O , tested on CCRF-CEM?
output: 103

input: Which measured CC50 belongs to O=C1c2ccccc2N(COCc2ccccc2)S(=O)(=O)N1Cc1ccccc1 , tested on CCRF-CEM?
output: 25

----------
tested on: Human betaherpesvirus 5; test: The concentration required to reduce virus plaque formation by 50% was measured on Davis strains of human cytomegalovirus; format: functional, organism-based
Form field: IC50 (one value per entry).

Please review the entries below; each comes with its answer.
[
  {
    "compound": "CC(=O)OCCOCN1c2ccccc2C(=O)N(Cc2ccccc2)S1(=O)=O",
    "resultValue": "> 50 µg/mL"
  },
  {
    "compound": "CCCOCN1c2ccccc2C(=O)NS1(=O)=O",
    "resultValue": "> 50 µg/mL"
  },
  {
    "compound": "C#CCOCN1c2ccccc2C(=O)N(Cc2ccccc2)S1(=O)=O",
    "resultValue": "12 µg/mL"
  },
  {
    "compound": "O=C1c2ccccc2N(COCc2ccccc2)S(=O)(=O)N1Cc1ccccc1",
    "resultValue": "11 µg/mL"
  }
]

input: What measured IC50 goes with O=C1NS(=O)(=O)N(COCCO)c2ccccc21 ?
output: > 50 µg/mL

input: Please report the recorded IC50 for O=C1c2ccccc2N(COCCO)S(=O)(=O)N1Cc1ccccc1 .
output: > 50 µg/mL

input: Item under review: Nc1nc2c(ncn2COC(CO)CO)c(=O)[nH]1 . Reported IC50?
output: 1.9 µg/mL

input: IC50 lookup needed for O=C1c2ccccc2NS(=O)(=O)N1COCCO , thanks.
output: > 50 µg/mL

----------
test system: Human alphaherpesvirus 3; assay: The concentration required to reduce virus plaque formation by 50% was measured on OKA strain of VZV expressing viral thymidine kinase(TK+); type: functional, organism-based
experimentalReadout: IC50

[
  {
    "compound": "CC(=O)OCCOCN1c2ccccc2C(=O)NS1(=O)=O",
    "resultValue": "> 50 µg/mL"
  },
  {
    "compound": "O=C1c2ccccc2N(COCc2ccccc2)S(=O)(=O)N1Cc1ccccc1",
    "resultValue": "20 µg/mL"
  },
  {
    "compound": "O=C1c2ccccc2N(Cc2ccccc2)S(=O)(=O)N1COCc1ccccc1",
    "resultValue": "> 5 µg/mL"
  },
  {
    "compound": "C#CCOCN1c2ccccc2C(=O)N(Cc2ccccc2)S1(=O)=O",
    "resultValue": "21 µg/mL"
  },
  {
    "compound": "O=C1NS(=O)(=O)N(COCCO)c2ccccc21",
    "resultValue": "> 50 µg/mL"
  }
]

input: What value of measured IC50 is listed for O=C1NS(=O)(=O)N(COCc2ccccc2)c2ccccc21 ?
output: > 50 µg/mL

input: So what does the record say about IC50 for O=C1c2ccccc2N(COCCO)S(=O)(=O)N1Cc1ccccc1 ?
output: 43 µg/mL

input: I have this molecule here, CC(=O)OCCOCN1c2ccccc2C(=O)N(Cc2ccccc2)S1(=O)=O , and I need its recorded IC50.
output: 42 µg/mL

input: Can you share its IC50? I mean this molecule: CCCOCN1c2ccccc2C(=O)NS1(=O)=O
output: > 50 µg/mL

input: Consider the molecule shown here: O=C1c2ccccc2NS(=O)(=O)N1COCCO What is its recorded IC50?
output: > 50 µg/mL

input: Using the record for O=C(OCCOCN1c2ccccc2C(=O)N(Cc2ccccc2)S1(=O)=O)c1ccccc1 , report its IC50.
output: > 20 µg/mL

input: What does the data say about its IC50? Entry: CC(=O)OCCOCN1C(=O)c2ccccc2NS1(=O)=O
output: > 50 µg/mL

input: Tell me the measured IC50 of O=C1c2ccccc2NS(=O)(=O)N1Cc1ccccc1 , please.
output: > 50 µg/mL

----------
test system: Human alphaherpesvirus 3; assay: The concentration required to reduce virus plaque formation by 50% was measured on YS/Rstrain of VZV expressing viral thymidine kinase(TK-); assay type: functional, organism-based
IC50 values for the compounds below.

[
  {
    "compound": "O=C1NS(=O)(=O)N(COCc2ccccc2)c2ccccc21",
    "resultValue": "> 50 µg/mL"
  },
  {
    "compound": "O=C1c2ccccc2NS(=O)(=O)N1COCCO",
    "resultValue": "> 50 µg/mL"
  },
  {
    "compound": "CC(=O)OCCOCN1c2ccccc2C(=O)NS1(=O)=O",
    "resultValue": "> 50 µg/mL"
  },
  {
    "compound": "O=C(OCCOCN1c2ccccc2C(=O)N(Cc2ccccc2)S1(=O)=O)c1ccccc1",
    "resultValue": "12 µg/mL"
  },
  {
    "compound": "O=C1NS(=O)(=O)N(COCCO)c2ccccc21",
    "resultValue": "> 50 µg/mL"
  }
]

// below: IC50 requested for another compound
input: Can you share its IC50? I mean this compound: CC(=O)OCCOCN1c2ccccc2C(=O)N(Cc2ccccc2)S1(=O)=O
output: > 20 µg/mL

----------
tested on: HEL; assay: The concentration required to reduce cell growth by 50% was measured on Human Embryonic Lung (HEL) cells; format: functional
experimentalReadout: CC50

Some compounds with recorded CC50:
[
  {
    "compound": "Nc1nc2c(ncn2COCCO)c(=O)[nH]1 [ACYCLOVIR]",
    "CC50": "> 200 µg/mL"
  },
  {
    "compound": "CCCOCN1c2ccccc2C(=O)NS1(=O)=O",
    "CC50": "> 50 µg/mL"
  }
]

Please look at the following compound next.
input: For the compound CC(=O)OCCOCN1C(=O)c2ccccc2NS1(=O)=O , what CC50 is on record?
output: > 200 µg/mL

// provenance: ChEMBL document CHEMBL1132117
